# key: entry, value: IC50 (µg/mL), neutralization of pseudovirus
test target: HIV-1 Env of isolate MGRM-G-028 (subtype G), on pseudovirus (HIV-1)
experiment notes: cell-based or functional assay
Respond with the bare value in µg/mL.

Record excerpt, results attached:
PGT-126 (antibody, V domains shown) VH: QPQLQESGPGLVEASETLSLTCTVSGDSTAACDYFWGWVRQPPGKGLEWIGGLSHCAGYYNTGWTYHNPSLKSRLTISLDTPKNQVFLKLNSVTAADTAIYYCARFDGEVLVYHDWPKPAWVDLWGRGTLVTVSS VL: QSALTQPPSASGSPGQSISISCTGTSNRFVSWYQQHPGKAPKLVIYGVNKRPSGVPDRFSGSKSGNTASLTVSGLQTDDEAVYYCSSLVGNWDVIFGGGTKLTVL: 0.012
PGT-131 (antibody, V domains shown) VH: QVQLQESGPGLVKPSETLSLTCTVSGDSINTGHHYWGWVRQVPGKGPEWIAHIHYNTAVLHNPALKSRVTISIFTLKNLITLSLSNVTAADTAVYFCVRSGGDILYYIEWQKPHWFYPWGPGILVTVSS VL: QSALTQPPSASGSLGQSLTISCSGTGSDIGSWNFVSWYQQFPGRAPNLIIFEVNRRRSGVPDRFSGSKSGNTASLTVSGLRSEDEAEYFCSSLSGRWDIVFGGGTKVTVL: 0.466

Now look at this entry.
IC50 (µg/mL), neutralization of pseudovirus for PGT-127 (antibody, V domains shown) VH: QPQLQESGPGLVEASETLSLTCTVSGDSTGRCNYFWGWVRQPPGKGLEWIGSLSHCRSYYNTDWTYHNPSLKSRLTISLDTPKNQVFLRLTSVTAADTATYYCARFGGEVLVYRDWPKPAWVDLWGRGTLVVTVS VL: QSALTQPPSASGSPGQSITISCTGTSNNFVSWYQQYPGKAPKLVIYEVNKRPSGVPDRFSGSKSGSTASLTVSGLQADDEGVYYCSSLVGNWDVIFGGGTKLTVL is 0.032
